The measurements presented in this section are drawn from patent US9434693B2.

- target or system: N-type calcium channel (α1B (Cav2.2), β3 and α2δ subunits) in stable HEK cell line (Homo sapiens (Human))
- measurement notes: Functional assay (FDSS calcium mobilization): antagonism of N-type calcium channel
- study conditions: KCl (50 mM) depolarization, six-point concentration-response
Class membership depends on IC50 alone; the intervals are low interval = under 8 nM, middle interval = from 8 nM up to 30 nM, high interval = 30 nM and over

Check out these entries, answers already filled in.
{"entry smiles": "COc1ccccc1-n1nc(O[C@H]2CC(C)(C)[S@@+]([O-])C(C)(C)C2)cc1-c1ccc(Cl)cc1.O=C(O)C(F)(F)F", "class": "low interval"}
{"entry smiles": "COc1ccccc1-n1nc(OC2CC(C)(C)SC(C)(C)C2)cc1-c1ccc(C#N)cc1", "class": "middle interval"}
{"entry smiles": "COc1ccccc1-n1nc(OC2CC(C)(C)OC(C)(C)C2)cc1-c1ccc(C#N)cc1", "class": "low interval"}
{"entry smiles": "COc1ccccc1-n1nc(OC2CC(C)(C)S(=O)(=O)C(C)(C)C2)cc1-c1ccc(Cl)cc1", "class": "low interval"}
{"entry smiles": "COc1ccccc1-n1nc(O[C@H]2CC[C@@H](NC(=O)C(F)(F)F)CC2)cc1-c1ccc(Cl)cc1", "class": "middle interval"}
{"entry smiles": "COc1ccccc1-n1nc(OCC2C(C)(C)OC2(C)C)cc1-c1ccc(Cl)cc1", "class": "low interval"}

Query string: Dear colleague, I would appreciate it if you could identify the bin for CCc1ccccc1-n1nc(OC2CCC3(CC2)OCCO3)cc1-c1ccc(Cl)cc1 and reply at your convenience.
Result string: high interval

Query string: Kindly state the category for this compound: COc1ccc(-c2cc(OC3CC(C)(C)S(=O)(=O)C(C)(C)C3)nn2-c2ccccc2OC)cc1
Result string: low interval

Query string: Which category does the recorded IC50 put COc1ccccc1-n1nc(OC2CCN(C(=O)N(C)C)CC2)cc1-c1ccc(Cl)cc1 in?
Result string: middle interval

====

For each of the compounds below, state its inhibition at 0.33 µM.
- target or system: N-type calcium channel (α1B (Cav2.2), β3 and α2δ subunits) in stable HEK cell line (Homo sapiens (Human), UniProt Q00975)
- Sequence (Q00975 whole entry): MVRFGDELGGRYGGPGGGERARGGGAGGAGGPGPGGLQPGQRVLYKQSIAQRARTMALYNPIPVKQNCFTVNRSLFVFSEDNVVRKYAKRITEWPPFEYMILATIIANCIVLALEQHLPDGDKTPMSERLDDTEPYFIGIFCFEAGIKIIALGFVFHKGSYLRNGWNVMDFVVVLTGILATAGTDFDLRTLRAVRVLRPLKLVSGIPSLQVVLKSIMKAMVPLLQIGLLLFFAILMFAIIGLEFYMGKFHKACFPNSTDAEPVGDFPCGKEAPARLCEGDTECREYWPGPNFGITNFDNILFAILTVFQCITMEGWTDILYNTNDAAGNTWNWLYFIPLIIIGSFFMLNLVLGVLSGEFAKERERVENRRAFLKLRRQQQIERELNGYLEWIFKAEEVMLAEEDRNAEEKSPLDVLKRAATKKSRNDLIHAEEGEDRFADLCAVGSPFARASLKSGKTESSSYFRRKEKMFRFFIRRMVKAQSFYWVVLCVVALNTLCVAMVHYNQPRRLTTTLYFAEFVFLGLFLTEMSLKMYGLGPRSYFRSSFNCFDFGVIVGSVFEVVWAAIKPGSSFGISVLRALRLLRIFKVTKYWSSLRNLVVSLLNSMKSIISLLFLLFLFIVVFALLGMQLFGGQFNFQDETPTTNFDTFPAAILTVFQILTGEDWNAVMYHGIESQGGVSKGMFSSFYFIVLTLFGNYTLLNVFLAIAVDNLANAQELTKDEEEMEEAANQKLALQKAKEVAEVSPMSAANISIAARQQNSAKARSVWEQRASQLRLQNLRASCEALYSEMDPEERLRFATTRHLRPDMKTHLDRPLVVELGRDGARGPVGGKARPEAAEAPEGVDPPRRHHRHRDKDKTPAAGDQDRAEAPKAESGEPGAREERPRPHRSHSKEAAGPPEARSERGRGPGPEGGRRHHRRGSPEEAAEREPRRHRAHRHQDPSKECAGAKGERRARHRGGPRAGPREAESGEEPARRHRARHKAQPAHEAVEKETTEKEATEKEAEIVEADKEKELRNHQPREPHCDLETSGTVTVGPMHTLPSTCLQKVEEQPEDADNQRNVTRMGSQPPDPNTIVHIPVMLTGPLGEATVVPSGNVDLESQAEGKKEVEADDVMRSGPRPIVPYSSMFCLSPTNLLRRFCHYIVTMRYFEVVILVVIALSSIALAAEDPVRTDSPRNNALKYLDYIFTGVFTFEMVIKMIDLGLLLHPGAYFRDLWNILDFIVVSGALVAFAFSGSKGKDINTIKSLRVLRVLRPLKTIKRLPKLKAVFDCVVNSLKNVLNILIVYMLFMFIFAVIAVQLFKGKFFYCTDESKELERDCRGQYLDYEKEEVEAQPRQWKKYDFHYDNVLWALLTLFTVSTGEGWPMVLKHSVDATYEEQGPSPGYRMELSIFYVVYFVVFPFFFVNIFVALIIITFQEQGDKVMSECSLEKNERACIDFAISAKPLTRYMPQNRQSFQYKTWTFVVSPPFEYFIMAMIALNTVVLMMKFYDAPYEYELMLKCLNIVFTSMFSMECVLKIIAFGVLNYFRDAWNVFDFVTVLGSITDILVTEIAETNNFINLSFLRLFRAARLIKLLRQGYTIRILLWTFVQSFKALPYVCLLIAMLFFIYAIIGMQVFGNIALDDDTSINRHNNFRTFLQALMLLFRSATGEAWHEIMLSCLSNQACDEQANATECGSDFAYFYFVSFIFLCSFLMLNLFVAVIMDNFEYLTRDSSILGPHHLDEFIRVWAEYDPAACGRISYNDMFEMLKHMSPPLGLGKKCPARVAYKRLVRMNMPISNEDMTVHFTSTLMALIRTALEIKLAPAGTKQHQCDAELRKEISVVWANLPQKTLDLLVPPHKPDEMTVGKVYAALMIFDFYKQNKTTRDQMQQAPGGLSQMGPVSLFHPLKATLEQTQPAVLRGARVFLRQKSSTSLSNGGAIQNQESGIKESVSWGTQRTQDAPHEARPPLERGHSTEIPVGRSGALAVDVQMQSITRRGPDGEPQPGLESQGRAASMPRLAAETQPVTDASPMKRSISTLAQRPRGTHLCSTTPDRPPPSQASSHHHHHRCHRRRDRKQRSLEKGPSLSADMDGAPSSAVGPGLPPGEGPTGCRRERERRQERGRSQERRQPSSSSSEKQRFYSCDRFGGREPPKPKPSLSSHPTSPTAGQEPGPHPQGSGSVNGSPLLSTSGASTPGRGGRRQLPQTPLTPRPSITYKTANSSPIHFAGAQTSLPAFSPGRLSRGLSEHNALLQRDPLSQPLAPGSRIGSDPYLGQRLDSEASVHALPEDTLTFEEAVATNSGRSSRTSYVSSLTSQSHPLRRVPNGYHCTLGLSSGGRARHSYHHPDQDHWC
- Sequence (P54284 whole entry partner): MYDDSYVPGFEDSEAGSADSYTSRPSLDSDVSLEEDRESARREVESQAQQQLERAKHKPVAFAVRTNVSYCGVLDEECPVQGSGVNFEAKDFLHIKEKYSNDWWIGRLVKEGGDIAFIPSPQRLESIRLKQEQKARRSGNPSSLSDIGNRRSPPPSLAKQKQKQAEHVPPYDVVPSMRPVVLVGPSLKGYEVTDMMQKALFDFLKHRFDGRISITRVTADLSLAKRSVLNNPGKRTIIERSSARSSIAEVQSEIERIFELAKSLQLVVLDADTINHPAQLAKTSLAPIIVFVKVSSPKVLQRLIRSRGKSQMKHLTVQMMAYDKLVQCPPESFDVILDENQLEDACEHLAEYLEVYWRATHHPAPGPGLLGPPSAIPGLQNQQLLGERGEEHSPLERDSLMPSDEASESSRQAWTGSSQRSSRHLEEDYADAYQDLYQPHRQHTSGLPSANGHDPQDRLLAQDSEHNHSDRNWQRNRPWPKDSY
- Sequence (P54289 25-1103 partner): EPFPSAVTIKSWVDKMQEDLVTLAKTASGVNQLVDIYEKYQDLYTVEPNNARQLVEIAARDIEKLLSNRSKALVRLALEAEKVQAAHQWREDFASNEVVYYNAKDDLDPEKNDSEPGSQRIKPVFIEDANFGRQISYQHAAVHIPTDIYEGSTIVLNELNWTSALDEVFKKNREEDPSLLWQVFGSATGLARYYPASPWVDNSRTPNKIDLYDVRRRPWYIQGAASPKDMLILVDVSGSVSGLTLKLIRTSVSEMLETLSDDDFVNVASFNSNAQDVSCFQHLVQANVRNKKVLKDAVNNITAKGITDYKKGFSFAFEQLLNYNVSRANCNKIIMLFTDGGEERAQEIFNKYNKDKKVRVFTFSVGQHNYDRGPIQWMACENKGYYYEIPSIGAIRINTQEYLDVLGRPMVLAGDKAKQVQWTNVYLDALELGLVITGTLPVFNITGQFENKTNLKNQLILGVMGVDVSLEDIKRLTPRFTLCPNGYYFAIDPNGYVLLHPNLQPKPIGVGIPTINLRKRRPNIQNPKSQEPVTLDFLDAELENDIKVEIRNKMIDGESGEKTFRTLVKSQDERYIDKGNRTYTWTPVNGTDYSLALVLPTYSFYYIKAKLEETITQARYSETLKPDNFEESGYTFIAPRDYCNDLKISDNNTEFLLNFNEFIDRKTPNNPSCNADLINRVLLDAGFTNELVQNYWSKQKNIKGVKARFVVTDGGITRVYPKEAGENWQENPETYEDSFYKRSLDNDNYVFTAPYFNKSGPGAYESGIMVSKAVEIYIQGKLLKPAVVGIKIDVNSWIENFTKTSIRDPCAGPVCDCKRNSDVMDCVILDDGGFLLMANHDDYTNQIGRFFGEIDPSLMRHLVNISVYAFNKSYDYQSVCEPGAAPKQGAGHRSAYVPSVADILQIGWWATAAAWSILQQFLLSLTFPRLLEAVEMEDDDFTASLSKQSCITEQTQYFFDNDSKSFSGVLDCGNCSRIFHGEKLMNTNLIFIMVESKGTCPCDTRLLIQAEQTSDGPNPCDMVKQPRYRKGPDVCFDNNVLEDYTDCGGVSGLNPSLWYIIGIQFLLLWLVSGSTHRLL
- measurement notes: Functional assay (FDSS calcium mobilization): antagonism of N-type calcium channel
- Assay type: cell-based
- study conditions: HEK293; FDSS, 0.33 μM compound
- Procedure: A stable cell line (HEK parent) co-expressing the α1B (Cav2.2), β3 and α2δ subunits of the N-type calcium channel subunits was used. […] Calcium mobilization responses to KCl depolarization were evaluated by measuring the intensity of calcium-mediated fluorescent signal in the presence of BD Calcium Assay Dye (BD Biosciences, Franklin Lakes, N.J., U.S.A.), utilizing a Functional Drug Screening System (FDSS) by Hamamatsu Corporation (Bridgewater, N.J. U.S.A.). […]
Numbers only, in %.

Would you mind listing inhibition at 0.33 µM for each of the following compounds?
1. COc1ccccc1-n1nc(OC2CC(C)(C)SC(C)(C)C2)cc1-c1ccc(C#N)cc1
2. COc1ccccc1-n1nc(OC2CC(C)(C)S(=O)(=O)C(C)(C)C2)cc1-c1ccc(Cl)cc1
3. COc1ccc(-c2cc(OC3CC(C)(C)S(=O)(=O)C(C)(C)C3)nn2-c2ccccc2OC)cc1
4. COc1ccccc1-n1nc(OC2CC(C)(C)S(=O)(=O)C(C)(C)C2)cc1-c1ccc(C#N)cc1
5. COc1ccccc1-n1nc(OC2CC(C)(C)OC(C)(C)C2)cc1-c1ccc(C#N)cc1
6. CC(C)Oc1ccccc1-n1nc(OC2CCN(S(=O)(=O)C(C)C)CC2)cc1-c1ccc(Cl)cc1
7. COc1ccccc1-n1nc(OC2CCN(S(=O)(=O)C(C)C)CC2)cc1-c1ccc(Cl)cc1
8. COc1ccccc1-n1nc(OC2CN(C(=O)N(C)OC)C2)cc1-c1ccc(Cl)cc1

Result string:
1. 87
2. 98
3. 94
4. 99
5. 90
6. 96
7. 95
8. 94

For each of the compounds below, state inhibition at 0.33 µM.
1. COc1ccccc1-n1nc(OC2CC(C)(C)C(=O)C(C)(C)C2)cc1-c1ccc(Cl)cc1
2. COc1ccccc1-n1nc(OC2CCOCC2)cc1-c1ccc(Cl)cc1
3. COc1ccccc1-n1nc(OC2CN(S(=O)(=O)C(C)C)C2)cc1-c1ccc(Cl)cc1
4. COc1ccccc1-n1nc(OC2CC(C)(C)OC(C)(C)C2)cc1-c1ccc(Cl)cc1
5. COc1ccccc1-n1nc(OC2CN(S(=O)(=O)c3c(C)noc3C)C2)cc1-c1ccc(Cl)cc1
6. COc1ccccc1-n1nc(OC2CN(S(C)(=O)=O)C2)cc1-c1ccc(Cl)cc1
7. COc1ccccc1-n1nc(OC2CN(C(=O)c3ccccc3)C2)cc1-c1ccc(Cl)cc1

Result string:
1: 92; 2: 98; 3: 92; 4: 96; 5: 93; 6: 91; 7: 87

List inhibition at 0.33 µM for every entry below, keeping the order given.
1. COc1ccc(-c2cc(OC3CC(C)(C)OC(C)(C)C3)nn2-c2ccccc2OC)cc1
2. COc1ccccc1-n1nc(OC2CC(C)(C)C(O)C(C)(C)C2)cc1-c1ccc(Cl)cc1 (stereo not shown)
3. COc1ccccc1-n1nc(OCC2C(C)(C)OC2(C)C)cc1-c1ccc(Cl)cc1

Result string:
97
78
95

Hey, can you go through the list below and give me inhibition at 0.33 µM for every item?
1. CC(C)(C)Oc1ccccc1-n1nc(OC2CCN(S(C)(=O)=O)CC2)cc1-c1ccc(Cl)cc1
2. COc1ccc(-c2cc(OC3CC(C)(C)SC(C)(C)C3)nn2-c2ccccc2OC)cc1

Result string:
[57, 93]

Parameters: items (list). Returns: inhibition at 0.33 µM for each item.
1. COc1ccccc1-n1nc(OC2CN(C(=O)OC(C)(C)C)C2)cc1-c1ccc(Cl)cc1
2. COc1ccccc1-n1nc(OC2CC(C)(C)SC(C)(C)C2)cc1-c1ccc(Cl)cc1

Result string:
[90, 91]
